system: spontaneous motility; assay: Spontaneous motility inhibiting activity (Dews equipment); type: in vivo; settings: Mus musculus, 0.5 h; oral, beam interruptions within 30 minutes; read-out: Motility inhibiting activity ID50
Parameter ED50: see the listing below.

molecule: COc1ccccc1N1CCN(CC(O)CON=C2CCc3c2ccc2ccccc32)CC1 (stereo not shown)
ED50 / mg/kg: 43

molecule: OC(CNC1CC1)CON=C1CCc2c1ccc1ccccc21 (stereo not shown)
ED50 / mg/kg: 6

molecule: CCCC(C)(COC(N)=O)COC(N)=O [Meprobamate, reference compound]
ED50 / mg/kg: 232

---

test: Acute toxicity on mice (oral LD50); conditions: mouse, in vivo, 7 days observation, maximal dose 1000 mg/kg
readout label: LD50 at 168 h (mg/kg)

molecule: CCN(CC)CCON=C1CCc2c1ccc1ccccc21
censor symbol: =
endpoint value: 640
--
molecule: CN(C)CCON=C1CCc2c1ccc1ccccc21
censor symbol: =
endpoint value: 820
--
molecule: c1ccc2c3c(ccc2c1)C(=NOCCN1CCCCC1)CC3
censor symbol: >
endpoint value: 1000
--
molecule: COc1ccccc1N1CCN(CC(O)CON=C2CCc3c2ccc2ccccc32)CC1 (stereo not drawn)
censor symbol: >
endpoint value: 1000
--
molecule: OC(CNC1CC1)CON=C1CCc2c1ccc1ccccc21 (stereo not drawn)
censor symbol: =
endpoint value: 660
--
molecule: CCCC(C)(COC(N)=O)COC(N)=O [Meprobamate, reference compound]
censor symbol: =
endpoint value: 1350
--
molecule: c1ccc2c3c(ccc2c1)C(=NOCCN1CCCC1)CC3
censor symbol: =
endpoint value: 700
--
molecule: CC(C)N(CCON=C1CCc2c1ccc1ccccc21)C(C)C
censor symbol: =
endpoint value: 600
--
molecule: Clc1cccc(N2CCN(CCCON=C3CCc4c3ccc3ccccc43)CC2)c1
censor symbol: >
endpoint value: 1000
--
molecule: CNC1=Nc2ccc(Cl)cc2C(c2ccccc2)=[N+]([O-])C1 [Chlordiazepoxide, reference compound]
censor symbol: =
endpoint value: 650
--
molecule: OCCN1CCN(CC(O)CON=C2CCc3c2ccc2ccccc32)CC1 (stereo not drawn)
censor symbol: >
endpoint value: 1000
--
molecule: O=C(NC1CCCCC1)ON=C1CCc2c1ccc1ccccc21
censor symbol: >
endpoint value: 1000
--
molecule: c1ccc2c3c(ccc2c1)C(=NOCCN1CCOCC1)CC3
censor symbol: >
endpoint value: 1000
--
molecule: c1ccc2c3c(ccc2c1)C(=NOCCCN1CCCCC1)CC3
censor symbol: =
endpoint value: 320
--
molecule: CN(C)CCCN1c2ccccc2Sc2ccc(Cl)cc21 [Chlorpromazine, reference compound]
censor symbol: =
endpoint value: 315
